test: Pharmacokinetics and oral bioavailability in rats; assay type: in vivo, Sprague-Dawley rats; settings: male, Sprague-Dawley, rat, plasma, po, 30 mg/kg
Observed Property: bioavailability (%)
# output: bare number, implied unit %

Input line: Sample Cc1nc2cccc(OCC(C)(C)C(=O)NC(C)C)c2c(N)c1C(=O)O [S9632] — what was its bioavailability?
Output line: 0.92

====

assay: Toxicokinetics in the 90-day dietary study; assay type: in vivo, Sprague-Dawley rats; settings: both, Sprague-Dawley [Crl:CD(SD)], rat, in vivo, po, 100 mg/kg/day, AUC(0-24), food ad-mix 100 mg/kg/day, Day 90, Combined
Observed Property: AUC(0-t) (ng·h/mL)
Give your result in ng·h/mL as a bare value.

Input line: May I ask what AUC(0-t) has been recorded for Cc1nc2cccc(OCC(C)(C)C(=O)NC(C)C)c2c(N)c1C(=O)O ?
Output line: 1200

====

experiment: Pharmacokinetics and oral bioavailability in rats; type: in vivo, Sprague-Dawley rats; settings: male, Sprague-Dawley, rat, plasma, iv, 1 mg/kg, Tmax, iv 1.0 mg/kg, Day 1, M
Observed Property: Tmax (min)
Only the number, expressed in min, is required.

Input line: Data request, read-out Tmax, for Cc1nc2cccc(OCC(C)(C)C(=O)NC(C)C)c2c(N)c1C(=O)O [S9632]
Output line: 1.8

====

assay: Pharmacokinetics and oral bioavailability in rats; assay type: in vivo, Sprague-Dawley rats; conditions: female, Sprague-Dawley, rat, plasma, iv, 1 mg/kg
Observed Property: clearance (mL/min/kg)
Your answer should be a plain number; it is taken to be in mL/min/kg.

Input line: Record request: clearance value, item Cc1nc2cccc(OCC(C)(C)C(=O)NC(C)C)c2c(N)c1C(=O)O
Output line: 42.5

====

assay: Pharmacokinetics and oral bioavailability in rats; format: in vivo, Sprague-Dawley rats; settings: female, Sprague-Dawley, rat, plasma, iv, 1 mg/kg, t1/2, iv 1.0 mg/kg, Day 1, F
Observed Property: half-life (min)
Express the result in min but write the number alone.

Input line: Dear colleague, I am looking for the recorded half-life of the following molecule: Cc1nc2cccc(OCC(C)(C)C(=O)NC(C)C)c2c(N)c1C(=O)O
Output line: 16.2

====

test: Pharmacokinetics and oral bioavailability in rats; format: in vivo, Sprague-Dawley rats; conditions: female, Sprague-Dawley, rat, plasma, po, 10 mg/kg
Observed Property: bioavailability (%)
Record the value in %, omitting the unit from your answer.

Input line: For the compound Cc1nc2cccc(OCC(C)(C)C(=O)NC(C)C)c2c(N)c1C(=O)O [S9632] , what bioavailability is on record?
Output line: 1.19

====

assay: Toxicokinetics in the 90-day dietary study; type: in vivo, Sprague-Dawley rats; conditions: male, Sprague-Dawley [Crl:CD(SD)], rat, in vivo, po, 100 mg/kg/day, AUC(0-24), food ad-mix 100 mg/kg/day, Day 90, Male
Observed Property: AUC(0-t) (ng·h/mL)
Quick reminder: number only, in ng·h/mL, skip the unit.

Input line: Looking for the measured AUC(0-t) of Cc1nc2cccc(OCC(C)(C)C(=O)NC(C)C)c2c(N)c1C(=O)O , can you help?
Output line: 1000

====

assay: Pharmacokinetics and oral bioavailability in rats; assay type: in vivo, Sprague-Dawley rats; settings: both, Sprague-Dawley, rat, plasma, po, t1/2, oral administration
Observed Property: half-life

Input line: // lookup half-life for Cc1nc2cccc(OCC(C)(C)C(=O)NC(C)C)c2c(N)c1C(=O)O
Output line: < 1.39 h

====

experiment: Pharmacokinetics and oral bioavailability in rats; type: in vivo, Sprague-Dawley rats; details: male, Sprague-Dawley, rat, plasma, iv, 1 mg/kg
Observed Property: clearance

Input line: Would you kindly share the measured clearance for Cc1nc2cccc(OCC(C)(C)C(=O)NC(C)C)c2c(N)c1C(=O)O [S9632] ?
Output line: 51.5 mL/min/kg

====

test: Pharmacokinetics and oral bioavailability in rats; assay type: in vivo, Sprague-Dawley rats; details: both, Sprague-Dawley [Crl:CD(SD)], rat, plasma, po, plasma elimination half-life (t1/2), range, oral administration
Observed Property: half-life

Input line: What value of half-life has been reported for the following compound? Cc1nc2cccc(OCC(C)(C)C(=O)NC(C)C)c2c(N)c1C(=O)O [S9632]
Output line: 0.71 to 1.39 h

====

experiment: Toxicokinetics in the 90-day dietary study; format: in vivo, Sprague-Dawley rats; settings: both, Sprague-Dawley [Crl:CD(SD)], rat, in vivo, po, 30 mg/kg/day, AUC(0-24), food ad-mix 30 mg/kg/day, Day 90, Combined
Observed Property: AUC(0-t) (ng·h/mL)
Give your result in ng·h/mL as a bare value.

Input line: For Cc1nc2cccc(OCC(C)(C)C(=O)NC(C)C)c2c(N)c1C(=O)O , what is its reported AUC(0-t)?
Output line: 341

====

assay: Relative oral bioavailability of sodium, phosphate and hemisulfate salts in rats; assay type: in vivo, Sprague-Dawley rats; settings: male, Sprague-Dawley, rat, plasma, po, 30 mg/kg
Observed Property: AUC(0-t) (ng·h/mL)
Reply numerically in ng·h/mL, unit not repeated.

Input line: Entry under review: Cc1nc2cccc(OCC(C)(C)C(=O)NC(C)C)c2c(N)c1C(=O)O . Reported AUC(0-t)?
Output line: 59.6

====

assay: Pharmacokinetics and oral bioavailability in rats; format: in vivo, Sprague-Dawley rats; conditions: female, Sprague-Dawley, rat, plasma, po, 30 mg/kg
Observed Property: bioavailability (%)
Hi! Could you send only the number? It should be in %, unit omitted.

Input line: I'd like to know its bioavailability. The compound in question is Cc1nc2cccc(OCC(C)(C)C(=O)NC(C)C)c2c(N)c1C(=O)O [S9632]
Output line: 0.77

====

test: Pharmacokinetics and oral bioavailability in rats; format: in vivo, Sprague-Dawley rats; details: both, Sprague-Dawley, rat, plasma, iv, 1 mg/kg, t1/2, intravenous
Observed Property: half-life

Input line: GET /values?readout=half-life&item= Cc1nc2cccc(OCC(C)(C)C(=O)NC(C)C)c2c(N)c1C(=O)O
Output line: < 16.2 min

====

assay: Pharmacokinetics and oral bioavailability in rats; type: in vivo, Sprague-Dawley rats; details: both, Sprague-Dawley [Crl:CD(SD)], rat, plasma, iv, 1 mg/kg, apparent plasma half-life (t1/2), range, iv, male and female
Observed Property: half-life

Input line: State the recorded half-life for this entry: Cc1nc2cccc(OCC(C)(C)C(=O)NC(C)C)c2c(N)c1C(=O)O
Output line: 11.4 to 16.2 min

====

assay: Toxicokinetics in the 90-day dietary study; assay type: in vivo, Sprague-Dawley rats; settings: female, Sprague-Dawley [Crl:CD(SD)], rat, in vivo, po, 100 mg/kg/day, AUC(0-24), food ad-mix 100 mg/kg/day, Day 90, Female
Observed Property: AUC(0-t) (ng·h/mL)
Dear colleague, please return just the value in ng·h/mL, with no unit written.

Input line: Given the entry Cc1nc2cccc(OCC(C)(C)C(=O)NC(C)C)c2c(N)c1C(=O)O , report its measured AUC(0-t).
Output line: 1400

====

test: Toxicokinetics in the 90-day dietary study; format: in vivo, Sprague-Dawley rats; details: male, Sprague-Dawley [Crl:CD(SD)], rat, in vivo, po, 30 mg/kg/day, AUC(0-24), food ad-mix 30 mg/kg/day, Day 90, Male
Observed Property: AUC(0-t) (ng·h/mL)
Write it as a number; the unit ng·h/mL goes unstated.

Input line: Bench note: what AUC(0-t) did Cc1nc2cccc(OCC(C)(C)C(=O)NC(C)C)c2c(N)c1C(=O)O show?
Output line: 293

====

experiment: Toxicokinetics in the 90-day dietary study; format: in vivo, Sprague-Dawley rats; details: both, Sprague-Dawley [Crl:CD(SD)], rat, in vivo, po, 100 mg/kg/day, AUC(0-24), food ad-mix 100 mg/kg/day, Day 7, Combined
Observed Property: AUC(0-t)
Express your answer as a number followed by its unit.

Input line: Entry Cc1nc2cccc(OCC(C)(C)C(=O)NC(C)C)c2c(N)c1C(=O)O has what AUC(0-t)?
Output line: 1040 ng·h/mL
